- Target: rNPFF-2 (Rattus norvegicus, UniProt Q9EQD2)
- Construct: expressed in transfected cells
- Sequence (Q9EQD2 whole entry): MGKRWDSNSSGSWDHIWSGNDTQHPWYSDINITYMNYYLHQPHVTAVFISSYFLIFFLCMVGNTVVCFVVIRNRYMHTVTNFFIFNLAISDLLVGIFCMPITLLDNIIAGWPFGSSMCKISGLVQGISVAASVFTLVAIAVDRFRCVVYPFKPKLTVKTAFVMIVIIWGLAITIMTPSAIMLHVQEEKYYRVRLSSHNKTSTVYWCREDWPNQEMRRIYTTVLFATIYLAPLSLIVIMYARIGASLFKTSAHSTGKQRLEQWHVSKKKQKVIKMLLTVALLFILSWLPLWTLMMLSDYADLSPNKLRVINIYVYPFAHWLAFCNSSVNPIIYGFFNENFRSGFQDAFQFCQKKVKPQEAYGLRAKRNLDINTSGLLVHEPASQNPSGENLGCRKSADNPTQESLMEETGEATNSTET
- Protocol summary: Functional activity (EC50 and intrinsic activity relative to NPFF)
- Assay type: cell-based
- Details: intrinsic activity as percentage of maximal response by NPFF
Lab note: anything with Functional Activity rNPFF-2 I.A. % below 50% is marked Y; values at 50% or higher are marked N.

Use the examples below as a reference point.
>  <Compound>
N=C(N)NCCC[C@H](NS(=O)(=O)c1ccc(C(F)(F)F)cc1[N+](=O)[O-])C(=O)N[C@@H](Cc1ccccc1)C(N)=O [Compound 1018]

>  <Group label>
Y

$$$$
>  <Compound>
CN(C)c1cccc2c(S(=O)(=O)N[C@@H](CCCN=C(N)N)C(=O)N[C@@H](Cc3ccccc3)C(N)=O)cccc12 [dansyl-RFamide, reference compound]

>  <Group label>
N

$$$$
>  <Compound>
N=C(N)NCCC[C@H](NS(=O)(=O)c1ccccc1Br)C(=O)N[C@@H](Cc1ccccc1)C(N)=O [Compound 2001]

>  <Group label>
Y

$$$$
>  <Compound>
N=C(N)NCCC[C@H](NS(=O)(=O)c1ccccc1[N+](=O)[O-])C(=O)N[C@@H](Cc1ccccc1)C(N)=O [Compound 1026]

>  <Group label>
N

$$$$
>  <Compound>
N=C(N)NCCC[C@H](NS(=O)(=O)c1ccc(F)cc1)C(=O)N[C@@H](Cc1ccccc1)C(N)=O [Compound 1005]

>  <Group label>
Y

$$$$

Take the compound N=C(N)NCCC[C@H](NS(=O)(=O)c1ccc(Cl)cc1Cl)C(=O)N[C@@H](Cc1ccccc1)C(N)=O [Compound 1010] and say whether its Functional Activity rNPFF-2 I.A. % is less than 50%.
Y

Just wondering, is Functional Activity rNPFF-2 I.A. % of COc1ccc(Br)cc1S(=O)(=O)N[C@@H](CCCNC(=N)N)C(=O)N[C@@H](Cc1ccccc1)C(N)=O [Compound 1025] below 50%?
Y

Item N=C(N)NCCC[C@@H](NS(=O)(=O)c1cccc2ccccc12)C(=O)N[C@@H](Cc1ccccc1)C(N)=O [Compound 3001] : Functional Activity rNPFF-2 I.A. % beneath 50%, strictly?
N

Consider N=C(N)NCCC[C@H](NS(=O)(=O)c1ccc(Cl)c([N+](=O)[O-])c1)C(=O)N[C@@H](Cc1ccccc1)C(N)=O [Compound 1016] . Does its Functional Activity rNPFF-2 I.A. % lie strictly below 50%?
N

Does the reported Functional Activity rNPFF-2 I.A. % of N=C(N)NCCC[C@H](NS(=O)(=O)c1ccc([N+](=O)[O-])cc1[N+](=O)[O-])C(=O)N[C@@H](Cc1ccccc1)C(N)=O [Compound 2002] stay below 50%?
Y

# strict comparison: is reported Functional Activity rNPFF-2 I.A. % < 50%? input = N=C(N)NCCC[C@H](NS(=O)(=O)c1ccc2ccccc2c1)C(=O)N[C@H](Cc1ccccc1)C(N)=O [Compound 1029]
N

Hello, I'm reviewing records and need to know if Functional Activity rNPFF-2 I.A. % of N=C(N)NCCC[C@@H](NS(=O)(=O)c1ccc(F)cc1)C(=O)N[C@@H](Cc1ccccc1)C(N)=O [Compound 1028] is below 50%. Could you check?
N

Take the compound N=C(N)NCCC[C@H](NS(=O)(=O)c1ccc(Cl)cc1)C(=O)N[C@@H](Cc1ccccc1)C(N)=O [Compound 1006] and say whether its Functional Activity rNPFF-2 I.A. % is less than 50%.
Y

Does N=C(N)NCCC[C@H](NS(=O)(=O)c1cc(Cl)ccc1Cl)C(=O)N[C@@H](Cc1ccccc1)C(N)=O [Compound 1021] have Functional Activity rNPFF-2 I.A. % strictly under 50%?
N

Decide: Functional Activity rNPFF-2 I.A. % of N=C(N)NCCC[C@H](NS(=O)(=O)c1ccc(Cl)c(Cl)c1)C(=O)N[C@@H](Cc1ccccc1)C(N)=O [Compound 1022] strictly below 50%?
Y

###

Measured EC50 of individual entries
- Target: rNPFF-1 (Rattus norvegicus, UniProt Q9EP86)
- Sequence (Q9EP86 whole entry): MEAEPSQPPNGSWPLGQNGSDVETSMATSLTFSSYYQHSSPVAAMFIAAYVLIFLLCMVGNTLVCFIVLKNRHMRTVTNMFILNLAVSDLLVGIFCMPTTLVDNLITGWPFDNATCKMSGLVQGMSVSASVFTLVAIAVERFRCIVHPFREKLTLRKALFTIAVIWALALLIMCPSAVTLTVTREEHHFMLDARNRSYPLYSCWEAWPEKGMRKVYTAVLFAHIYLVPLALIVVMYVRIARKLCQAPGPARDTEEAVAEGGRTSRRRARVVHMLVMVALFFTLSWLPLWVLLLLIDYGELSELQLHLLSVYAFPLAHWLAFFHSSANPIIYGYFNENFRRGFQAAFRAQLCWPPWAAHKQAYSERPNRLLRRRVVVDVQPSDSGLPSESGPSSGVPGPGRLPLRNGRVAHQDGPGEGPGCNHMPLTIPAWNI
- Protocol summary: Functional activity (EC50 and intrinsic activity relative to NPFF)
- Details: tested 0.001 nM to 3600 nM

Please review the entries below; each comes with its answer.
>  <Chemical smiles>
N=C(N)NCCC[C@H](NS(=O)(=O)c1ccc(I)cc1)C(=O)N[C@@H](Cc1ccccc1)C(N)=O

>  <Target>
rNPFF-1 (Rattus norvegicus, UniProt Q9EP86)

>  <Quantity kind>
EC50

>  <Value measured>
358 nM

$$$$
>  <Chemical smiles>
N=C(N)NCCC[C@H](NS(=O)(=O)c1ccc2ccccc2c1)C(=O)N[C@@H](Cc1ccccc1)C(N)=O

>  <Target>
rNPFF-1 (Rattus norvegicus, UniProt Q9EP86)

>  <Quantity kind>
EC50

>  <Value measured>
52 nM

$$$$
>  <Chemical smiles>
COc1ccc(Br)cc1S(=O)(=O)N[C@@H](CCCNC(=N)N)C(=O)N[C@@H](Cc1ccccc1)C(N)=O

>  <Target>
rNPFF-1 (Rattus norvegicus, UniProt Q9EP86)

>  <Quantity kind>
EC50

>  <Value measured>
596 nM

$$$$

Now turn to the next compound.
For the compound N=C(N)NCCC[C@H](NS(=O)(=O)Cc1ccccc1)C(=O)N[C@@H](Cc1ccccc1)C(N)=O , what EC50 is on record?
765 nM

###

- Target: rNPFF-2 (Rattus norvegicus, UniProt Q9EQD2)
- Construct: expressed in transfected cells
- Protocol summary: Functional activity (EC50 and intrinsic activity relative to NPFF)
- Type: cell-based
- Details: tested 0.001 nM to 3600 nM; read-out: Functional Activity rNPFF-2 EC50
Quantity kind: EC50 (nM)
Reply with just the number (in nM).

Some compounds with recorded EC50:
>  <Chemical smiles>
N=C(N)NCCC[C@H](NS(=O)(=O)c1ccc2ccccc2c1)C(=O)N[C@@H](Cc1ccccc1)C(N)=O

>  <EC50 / nM>
906

$$$$
>  <Chemical smiles>
N=C(N)NCCC[C@@H](NS(=O)(=O)c1ccc(F)cc1)C(=O)N[C@@H](Cc1ccccc1)C(N)=O

>  <EC50 / nM>
1580

$$$$
>  <Chemical smiles>
N=C(N)NCCC[C@@H](NS(=O)(=O)c1cccc2ccccc12)C(=O)N[C@@H](Cc1ccccc1)C(N)=O

>  <EC50 / nM>
378

$$$$
>  <Chemical smiles>
N=C(N)NCCC[C@H](NS(=O)(=O)c1cccc2ccccc12)C(=O)N[C@@H](Cc1ccccc1)C(N)=O

>  <EC50 / nM>
527

$$$$

Given the entry N=C(N)NCCC[C@H](NS(=O)(=O)c1ccc(Cl)c([N+](=O)[O-])c1)C(=O)N[C@@H](Cc1ccccc1)C(N)=O , report its measured EC50.
660

###

- Target: rNPFF-1 (Rattus norvegicus)
- Protocol summary: Functional activity (EC50 and intrinsic activity relative to NPFF)
- Details: tested 0.001 nM to 3600 nM
Quantity kind: pEC50
Friendly reminder that pEC50 comes from taking -log10 of the concentration in mol/L.

These recorded examples may help you get a feel for the data.
>  <Chemical smiles>
N=C(N)NCCC[C@H](NS(=O)(=O)c1cc(Cl)ccc1Cl)C(=O)N[C@@H](Cc1ccccc1)C(N)=O

>  <pEC50>
5.99

$$$$
>  <Chemical smiles>
Cc1ccc(S(=O)(=O)N[C@@H](CCCNC(=N)N)C(=O)N[C@@H](Cc2ccccc2)C(N)=O)cc1

>  <pEC50>
6.54

$$$$
>  <Chemical smiles>
N=C(N)NCCC[C@H](NS(=O)(=O)c1ccc([N+](=O)[O-])cc1)C(=O)N[C@@H](Cc1ccccc1)C(N)=O

>  <pEC50>
6.83

$$$$
>  <Chemical smiles>
N=C(N)NCCC[C@H](NS(=O)(=O)c1cccs1)C(=O)N[C@@H](Cc1ccccc1)C(N)=O

>  <pEC50>
6.87

$$$$
>  <Chemical smiles>
N=C(N)NCCC[C@@H](NS(=O)(=O)c1ccc(F)cc1)C(=O)N[C@@H](Cc1ccccc1)C(N)=O

>  <pEC50>
6.39

$$$$

What pEC50 value was documented for this molecule, N=C(N)NCCC[C@H](NS(=O)(=O)c1ccc(F)cc1)C(=O)N[C@H](Cc1ccccc1)C(N)=O ?
5.80

Param item = N=C(N)NCCC[C@H](NS(=O)(=O)c1ccc2ccccc2c1)C(=O)N[C@H](Cc1ccccc1)C(N)=O ; retrieve measured pEC50.
6.32

###

- Target: rNPFF-1 (Rattus norvegicus, UniProt Q9EP86)
- Construct: expressed in transfected cells
- Protocol summary: Functional activity (EC50 and intrinsic activity relative to NPFF)
- Format: cell-based
- Details: intrinsic activity as percentage of maximal response by NPFF
We begin with a simple list: items and their reported Functional Activity rNPFF-1 I.A. %.
Supply the numeric figure in %, leaving out any unit text.

Example entries begin here.
>  <Molecule>
N=C(N)NCCC[C@H](NS(=O)(=O)c1ccc(Cl)c([N+](=O)[O-])c1)C(=O)N[C@@H](Cc1ccccc1)C(N)=O [Compound 1016]

>  <Target>
rNPFF-1 (Rattus norvegicus, UniProt Q9EP86)

>  <Value measured>
72

$$$$
>  <Molecule>
N=C(N)NCCC[C@H](NS(=O)(=O)c1cccc([N+](=O)[O-])c1)C(=O)N[C@@H](Cc1ccccc1)C(N)=O [Compound 1002]

>  <Target>
rNPFF-1 (Rattus norvegicus, UniProt Q9EP86)

>  <Value measured>
88

$$$$

With those in mind, consider the next molecule.
Param item = COc1ccc(Br)cc1S(=O)(=O)N[C@@H](CCCNC(=N)N)C(=O)N[C@@H](Cc1ccccc1)C(N)=O [Compound 1025] ; retrieve measured Functional Activity rNPFF-1 I.A. %.
78
